// data source = paper PMC9482650

Target: DLG4_1, P78352
Sequence (P78352 62-152): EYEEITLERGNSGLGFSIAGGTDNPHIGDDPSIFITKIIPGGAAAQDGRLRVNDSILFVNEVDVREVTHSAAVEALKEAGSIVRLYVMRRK
Test: holdup assay
Design: key: below the threshold = too weak to quantify, mostly under pKd 3.1 to 4
Conditions: plain residues with an end cap or a label only (N-terminal biotin on a linker: ado-ado)
Property measured: pKd
Number only, please.

Which measured pKd value corresponds to IQISELETNV [SLC1A7, O00341] ?
4.44

Quick one: IKLETKKTKL [SLC15A2, Q16348]
3.69

Then what about the binder TKEIPNCTSV [SORCS3, Q9UPU3] ?
4.26

Could you do the same for FHSIKQSTAV [CRHR1, P34998] , please?
4.56

Repeat for the following binder: PGKKPEDSRV [SLCO2B1, O94956]
3.83

Can you handle YAEKRMLTEV [KCNA6, P17658] next?
3.65

What would you report for PEKVSNTTVV [IGSF5, Q9NSI5] ?
4.15

Now consider KKTPVSRSHL [SLC22A3, O75751] .
3.55

Further, for PLPPEEESWV [GAS2L2, Q8NHY3] ?
4.03

Entry to check: KLQNPNQSVV [TYRP1, P17643]
3.91

What do we get for HLSTRQGTCV [ATRNL1, Q5VV63] ?
4.33

Try KIEDVEITLV [FCHSD2, O94868] next.
3.89

Next entry: THHRKIHTRV [ZNF599, Q96NL3]
4.98

Try this binder too: TNSKQGETTV [FZD1, Q9UP38]
4.7
